Assay: Quantitative High-Throughput drug screen in 47 multiple myeloma cell lines against the NCATS MIPE library collection: MOLP8_DSMZ cell viability assay (AID 1918977); note: nearly all actives have a fitted effect of over 45% in size
Conditions: MOLP8 myeloma viability, CellTiter-Glo ATP luminescence, 48 h; series mostly up to 45.8 µM
Description: PI: Beverly A. Mock Ph.D. Laboratory of Cancer Biology and Genetics, Center for Cancer Research, National Cancer Institute, National Institute of Health, Bethesda, Maryland […] 5; Detector; 425V; Luminescence; Viewlux PerkinElmer. […] 1. […] Briefly, the corresponding myeloma cell lines were screened in 1,536-well plates with 500 cells, 5-uL per well for inhibition of cell viability (assessed by measuring ATP levels with CellTiterGlo). […]
Inconclusive results are not listed. Activity calls are given as the source filed them. Calls come from the whole dose curve; as a rule, active = well fitted cell-killing curve with a large enough effect; inconclusive = small, poorly fitted or top-dose-only effect, or effect the other way; inactive = no such curve, though single readings can be large or run the other way.
Outcomes: active, inactive

{"columns": ["molecule", "assigned-label"],
 "data": [
  ["CN1CCN(c2ccc3nc(-c4c(N)c5c(F)cccc5[nH]c4=O)[nH]c3c2)CC1", "active"],
  ["COCCn1c2c([n+](Cc3cnccn3)c1C)C(=O)c1ccccc1C2=O", "active"],
  ["Cc1c(Cn2c(C)nc3c(C(=O)O)cc(N4CCOCC4)cc32)cccc1C(F)(F)F", "inactive"],
  ["CN(c1ncccc1CNc1nc(Nc2ccc3c(c2)CC(=O)N3)ncc1C(F)(F)F)S(C)(=O)=O", "active"],
  ["OCc1ccc(-c2ccc(-c3ccc(CO)s3)o2)s1", "active"],
  ["CC1(C)OC2=C(C(=O)c3ccccc3C2=O)[C@H](NCc2ccccc2)[C@H]1O", "active"],
  ["Nc1ccccc1NC(=O)c1ccc(CNc2nccc(-c3cccnc3)n2)cc1", "active"],
  ["CN[C@H]1CCc2cc(OC)c(OC)c(OC)c2-c2ccc(OC)c(=O)cc21", "active"],
  ["Cc1cnc(Nc2ccc(F)cc2Cl)nc1-c1c[nH]c(C(=O)N[C@H](CO)c2cccc(Cl)c2)c1", "active"],
  ["COc1ccc(CC2SC(=O)NC2=O)cc1C(=O)NCc1ccc(C(F)(F)F)cc1 (stereo not given)", "inactive"],
  ["CC(=O)OCCN1C(=O)c2c(C)nc3ccc(S(=O)(=O)N4CCOCC4)cc3c2C1=O", "inactive"],
  ["O=c1[nH]nc(Sc2ncc([N+](=O)[O-])s2)n1-c1ccc2c(c1)OCCO2", "active"],
  ["CC(C)(O)c1cc2nc(-c3cnc(N)nc3)nc(N3CCOCC3)c2s1", "active"],
  ["COc1cc(=C2C=c3ccccc3=N2)[nH]c1=Cc1[nH]c(C)cc1C", "active"],
  ["CC1(C)CC(=O)c2c(C(F)(F)F)nn(-c3ccc(C(N)=O)c(NC4CCC(OC(=O)CN)CC4)c3)c2C1 (stereo not given)", "active"],
  ["CN(C)c1nc(Cc2ccc(NC(=O)c3ccc4ccccc4c3)cc2)nc(Cl)c1CC(=O)O", "inactive"],
  ["CCCCOc1c(C(=O)c2c(F)cc(C)cc2F)cnc2n[nH]cc12", "active"],
  ["Nc1nccc(Oc2ccc(NC(=O)c3c[nH]cc(-c4ccc(F)cc4)c3=O)cc2F)c1Cl", "active"],
  ["O=C(CCCCCCNC(=O)c1cnc(N(c2ccccc2)c2ccccc2)nc1)NO", "active"],
  ["Cc1cn(-c2cc(NC(=O)c3ccc(C)c(Nc4nccc(-c5cccnc5)n4)c3)cc(C(F)(F)F)c2)cn1", "active"]
]}

---

System: HaCat
Test: Cytotoxic Profiling of Annotated Libraries Using Quantitative High-Throughput Screening (AID 1296008); note: nearly all actives have a fitted effect of over 60% in size
Conditions: Five cell lines viability, CellTiter-Glo ATP luminescence, 48-72 h
Protocol: Cell-based phenotypic screening is a commonly used approach to discover biological pathways, novel drug targets, chemical probes and high-quality hit-to-lead molecules. […] A pintool (Kalypsys) was used to transfer 23 nL of compound solution to the 1536-well assay plates. […] Plates were left at room temperature for 10 min before imaging the ATP-coupled luminescence using a ViewLux microplate imager (PerkinElmer, Waltham, MA).
Inconclusive results are not listed. The source made the active and inactive calls. Calls follow the shape of the dose curve; as a rule, active = well fitted inhibition curve with a large enough effect; inconclusive = small, poorly fitted or top-dose-only effect; inactive = flat fitted curve, though single readings scatter.
Outcomes: 1 (yes) (active), 0 (no) (inactive)

{"columns": ["compound", "assigned-label"],
 "data": [
  ["CC(=O)Nc1nc(C)c(-c2ccc(Cl)c(S(=O)(=O)NCCO)c2)s1", "1 (yes)"],
  ["CC[C@@H]1C(=O)N(C)c2cnc(Nc3ccc(C(=O)NC4CCN(C)CC4)cc3OC)nc2N1C1CCCC1", "1 (yes)"],
  ["CN(c1ncccc1CNc1nc(Nc2ccc3c(c2)CC(=O)N3)ncc1C(F)(F)F)S(C)(=O)=O", "1 (yes)"],
  ["CC1=C(CO)C(=O)O[C@@H]([C@@H](C)[C@H]2CC[C@H]3[C@@H]4C[C@H]5O[C@]56[C@@H](O)C=CC(=O)[C@]6(C)[C@@H]4CC[C@]23C)C1", "1 (yes)"],
  ["Cc1nc2cnc3ccc(C#Cc4cccnc4)cc3c2n1-c1ccc(C(C)(C)C#N)cc1", "1 (yes)"],
  ["CC(O)C1C(=O)N2C(C(=O)O)=C(SC3CNC(C(=O)N(C)C)C3)C(C)C12 (centres undefined)", "0 (no)"],
  ["CC(C)(C)c1cc(C(C)(C)C)c(NC(=O)c2c[nH]c3ccccc3c2=O)cc1O", "0 (no)"],
  ["C1Cc2[nH]nc(-c3nn[nH]n3)c2C1", "0 (no)"],
  ["CCCCc1nc2cc(C=CC(=O)NO)ccc2n1CCN(CC)CC", "1 (yes)"]
]}

---

test: Quantitative High-Throughput drug screen in 47 multiple myeloma cell lines against the NCATS MIPE library collection: OCIMY5_PLB cell viability assay (AID 1918988); settings: OCI-MY5 myeloma viability, ATP luminescence, 48 h; series mostly up to 45.8 µM; note: potency is the fitted concentration of half-maximal effect; nearly all actives have a fitted effect of over 65% in size
Inconclusive results are not listed. Active and inactive are the calls of the source. Calls follow the shape of the dose curve; as a rule, active = well fitted cell-killing curve with a large enough effect; inconclusive = small, poorly fitted or top-dose-only effect, or effect the other way; inactive = no such curve, though single readings can be large or run the other way.
Each item that follows carries a reported Potency.
observable: Potency

{"columns": ["molecule", "observable", "reported-result"],
 "data": [
  ["COc1c(OCCCN2CCOCC2)ccc2c3n(c(=NC(=O)c4cnc(N)nc4)nc12)CCN3", "Potency", "0.102 µM (active)"],
  ["c1nc2nc(Nc3ccc(N4CCOCC4)cc3)nc(NC3CCCCC3)c2[nH]1", "Potency", "18.7 µM (active)"],
  ["O=C(CCCCCCC(=O)Nc1ccc([C@H]2O[C@@H](CSc3nc(-c4ccccc4)c(-c4ccccc4)o3)C[C@@H](c3ccc(CO)cc3)O2)cc1)NO", "Potency", "11.8 µM (active)"],
  ["Cn1cncc1[C@@](N)(c1ccc(Cl)cc1)c1ccc2c(c1)c(-c1cccc(Cl)c1)cc(=O)n2C", "Potency", "7.43 µM (active)"],
  ["Cc1nc(N)ncc1-c1nc(N2CCOCC2)c2sc(C(C)(C)O)cc2n1", "Potency", "0.662 µM (active)"],
  ["Cc1nc2ccc(CN(C)c3ccc(C(=O)N[C@@H](CCC(=O)O)C(=O)O)s3)cc2c(=O)[nH]1", "Potency", "5.26 µM (active)"],
  ["CN1CCN(c2ccc3nc(-c4c(N)c5c(F)cccc5[nH]c4=O)[nH]c3c2)CC1", "Potency", "16.6 µM (active)"],
  ["C=C1C(=CC=C2CCCC3(C)[C@@H]([C@H](C)C=CC=CC(O)(CC)CC)CC[C@@H]23)C[C@@H](O)C[C@@H]1O (some centres undefined)", "Potency", "10.5 µM (active)"]
]}

---

assay: Quantitative High-Throughput drug screen in 47 multiple myeloma cell lines against the NCATS MIPE library collection: RPMI8226_ATCC cell viability assay (AID 1919871); conditions: RPMI8226 myeloma viability, CellTiter-Glo ATP luminescence, 48 h; series mostly up to 45.8 µM; note: nearly all actives have a fitted effect of over 30% in size
Records with an inconclusive call do not appear. Activity calls are given as the source filed them. The call rests on the fitted dose curve; in most records, active means well fitted cell-killing curve with a large enough effect; inconclusive means small, poorly fitted or top-dose-only effect, or effect the other way; inactive means no such curve, though single readings can be large or run the other way.
Outcomes: active, inactive

{"columns": ["molecule", "assigned-label"],
 "data": [
  ["C[C@@H]1COC(Nc2ccc3ncnc(Nc4ccc(OCc5nccs5)c(Cl)c4)c3c2)=N1", "active"],
  ["COc1cc(=C2C=c3ccccc3=N2)[nH]c1=Cc1[nH]c(C)cc1C", "active"],
  ["C1=CCOCc2cc(ccc2OCCN2CCCC2)Nc2nccc(n2)-c2cccc(c2)OCC1", "active"],
  ["Cc1nc2cnc3ccc(C#Cc4cccnc4)cc3c2n1-c1ccc(C(C)(C)C#N)cc1", "active"],
  ["CCCn1c(=O)c2[nH]c(-c3cnn(Cc4cccc(C(F)(F)F)c4)c3)nc2n(CC)c1=O", "active"],
  ["CN1CCN(c2cc(C(=O)Nc3ccc4c(c3)-c3c(c(C(N)=O)nn3-c3ccc(F)cc3)CC4)c(Cl)cn2)CC1", "active"],
  ["O=c1[nH]nc(Sc2ncc([N+](=O)[O-])s2)n1-c1ccc2c(c1)OCCO2", "active"],
  ["COc1cccc2nc(-c3cccs3)nc(NN3C(=O)C=C(C)C3=O)c12", "active"],
  ["Cc1cc(CN2CCN(c3c(Br)cnc4nc(-c5ccc(N6CCN(C)CC6)cc5)[nH]c34)CC2)no1", "active"],
  ["OCCCNc1cc(-c2ccnc(Nc3cccc(Cl)c3)n2)ccn1", "active"],
  ["CC=C1NC(=O)[C@H]2CSSCCC=C[C@H](CC(=O)N[C@H](C(C)C)C(=O)N2)OC(=O)[C@H](C(C)C)NC1=O", "active"],
  ["CC(C)c1cnn2c(NCc3ccccc3)cc(N[C@@H](CO)[C@H](O)CO)nc12", "active"],
  ["Cc1cc(Nc2cc(N3CCN(C)CC3)nc(C=Cc3ccccc3)n2)n[nH]1", "active"],
  ["CC(=O)OCCN1C(=O)c2c(C)nc3ccc(S(=O)(=O)N4CCOCC4)cc3c2C1=O", "inactive"],
  ["Cc1[nH]nc2ccc(-c3cncc(OC[C@@H](N)Cc4ccccc4)c3)cc12", "active"],
  ["CC(C)C[C@H](NC(=O)CNC(=O)c1cc(Cl)ccc1Cl)B(O)O", "active"],
  ["CN1c2cc(O)c(N=NC(N)=O)cc2CC1S(=O)(=O)O (centres undefined)", "inactive"],
  ["CC(C)=CCCC(C)=CCCC(C)=CCSc1ccccc1C(=O)O", "active"],
  ["CC(C)(C)OC(=O)Nc1ccc(-c2cc(C(=O)NCCCCCCC(=O)NO)no2)cc1", "active"],
  ["Cc1ccc(CN2CCNCC2)cc1NC(=O)CNc1ccc(F)c(F)c1", "inactive"],
  ["NC1(Cc2ccc(Cl)cc2)CCN(c2ncnc3[nH]ccc23)CC1", "active"],
  ["O=C(C=Cc1cccnc1)NCCCCC1CCN(C(=O)c2ccccc2)CC1", "active"],
  ["CCOc1cc2ncc(C#N)c(Nc3ccc(F)c(Cl)c3)c2cc1NC(=O)C=CCN(C)C", "active"],
  ["O=C(O)c1ccc2cc(-c3ccc(O)c(C45CC6CC(CC(C6)C4)C5)c3)ccc2c1", "active"],
  ["CCCCc1nc2cc(C=CC(=O)NO)ccc2n1CCN(CC)CC", "active"],
  ["CNC(=O)c1nn(C)c2c1C(C)(C)Cc1cnc(Nc3ccc(N4CCN(C)CC4)cc3)nc1-2", "active"],
  ["C[C@@]12O[C@@H](C[C@]1(O)CO)n1c3ccccc3c3c4c(c5c6ccccc6n2c5c31)CNC4=O", "active"],
  ["CN(C)c1nc(Cc2ccc(NC(=O)c3ccc4ccccc4c3)cc2)nc(Cl)c1CC(=O)O", "inactive"],
  ["Cn1cncc1[C@@](N)(c1ccc(Cl)cc1)c1ccc2c(c1)c(-c1cccc(Cl)c1)cc(=O)n2C", "active"],
  ["Fc1cc(-c2cccc3ncc(-c4cnn(C5CCNCC5)c4)nc23)cc(F)c1CN1CCOCC1", "active"],
  ["CS(=O)(=O)N1CCN(Cc2cc3nc(-c4cccc5[nH]ncc45)nc(N4CCOCC4)c3s2)CC1", "active"],
  ["Nc1ccccc1NC(=O)c1ccc(CNC(=O)OCc2cccnc2)cc1", "active"],
  ["C#Cc1cccc(Nc2ncnc3cc(OC)c(OCCCCCCC(=O)NO)cc23)c1", "active"],
  ["COc1cccc(-c2ccc(NC(=O)C3=C(C(=O)O)CCC3)c(F)c2)c1", "active"],
  ["CC(C)c1cc(-c2n[nH]c(=O)n2-c2ccc3c(ccn3C)c2)c(O)cc1O", "active"],
  ["O=c1[nH]c(=O)n(C2CCCO2)cc1F (centres undefined)", "inactive"],
  ["Nc1cc(C(F)(F)F)c(-c2cc(N3CCOCC3)nc(N3CCOCC3)n2)cn1", "active"],
  ["Nc1ncnc2c1c(-c1cccc(OCc3ccccc3)c1)cn2C1CC(CN2CCCC2)C1 (centres undefined)", "active"],
  ["Cc1cc(Nc2ncnc3ccc(-c4ccc(CNCCS(C)(=O)=O)o4)cc23)ccc1Oc1ccn2ncnc2c1", "active"]
]}
